From: ChEMBL document CHEMBL1144966

Protein target, amino acids: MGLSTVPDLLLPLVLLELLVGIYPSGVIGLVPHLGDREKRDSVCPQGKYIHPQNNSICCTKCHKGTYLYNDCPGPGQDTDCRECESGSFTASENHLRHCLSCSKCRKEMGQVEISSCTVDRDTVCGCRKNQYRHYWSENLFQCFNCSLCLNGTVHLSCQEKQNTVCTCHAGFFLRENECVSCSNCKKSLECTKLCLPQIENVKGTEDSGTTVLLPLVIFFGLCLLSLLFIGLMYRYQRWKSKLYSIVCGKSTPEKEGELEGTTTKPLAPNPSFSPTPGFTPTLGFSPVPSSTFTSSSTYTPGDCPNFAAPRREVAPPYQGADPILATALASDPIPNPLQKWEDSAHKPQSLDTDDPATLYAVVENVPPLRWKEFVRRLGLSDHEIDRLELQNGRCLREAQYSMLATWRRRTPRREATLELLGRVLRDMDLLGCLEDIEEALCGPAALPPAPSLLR
readoutLabel: pIC50
// scale note: pIC50 = -log10(conc_M); give the bare number

{"smilesStructure": "CCN1C(=O)c2cc3c(OC)cc(OC)cc3n2C1=S", "pIC50": 6.00}
{"smilesStructure": "COc1cc(OC)c2cc3n(c2c1)C(=S)N(CCCN1CCOCC1)C3=O", "pIC50": 6.17}
{"smilesStructure": "C=CCN1C(=O)c2c(C)c3c(OC)cc(OC)cc3n2C1=S", "pIC50": 5.96}

If you can, please state the reported pIC50 value of "C=CCN1C(=O)c2cc3c(OC)c(OC)c(OC)cc3n2C1=S" . 6.11
